Recorded PRE Application IPOHE herbicidal damage (five point scale) values for a group of compounds are listed next.
Test system: Ipomoea hederacea (IPOHE)
protocol description: Pre-emergence herbicidal glasshouse test on Ipomoea hederacea
Type: in vivo
condition summary: pre-emergence; 1000 g/h; evaluated after 13 days
quantity kind: PRE Application IPOHE herbicidal damage (five point scale)

test smiles | experimental result
Cn1ncc(-c2cc(Cl)c(Cl)cc2Cl)c(O)c1=O | 1 (1=0-19% damage)
Cn1ncc(-c2cccn(-c3cccc([N+](=O)[O-])c3)c2=O)c(O)c1=O | 1 (1=0-19% damage)
Cn1ncc(-c2cccnc2OCC(F)F)c(O)c1=O | 1 (1=0-19% damage)
Cc1ccc(F)cc1-c1c(C(F)(F)F)ccn(-c2cnn(C)c(=O)c2O)c1=O | 4 (4=60-79% damage)
Cn1ncc(-c2ccc(S(C)(=O)=O)c(O)c2Cl)c(O)c1=O | 1 (1=0-19% damage)
Cn1ncc(-c2ccc(C(F)(F)F)cc2S(C)(=O)=O)c(OC(=O)c2ccccc2)c1=O | 5 (5=80-100% damage)
Cn1ncc(-c2ccc(F)cc2C(F)(F)F)c(O)c1=O | 1 (1=0-19% damage)
Cn1ncc(-n2ccc(C(F)(F)F)c(-c3cccc(S(C)(=O)=O)c3)c2=O)c(O)c1=O | 2 (2=20-39% damage)
Cn1ncc(-c2ccc(C(F)(F)F)nc2C#N)c(O)c1=O | 1 (1=0-19% damage)
Cn1ncc(-c2ccc(S(C)(=O)=O)c(C3=NOCC3)c2Cl)c(O)c1=O | 4 (4=60-79% damage)
Cn1ncc(-n2ccc(C(F)(F)F)c(-c3cc(Cl)cc(Cl)c3)c2=O)c(O)c1=O | 2 (2=20-39% damage)
Cn1ncc(-c2ccccc2C#N)c(O)c1=O | 1 (1=0-19% damage)
CCS(=O)(=O)c1ccccc1-c1cnn(COC)c(=O)c1O | 4 (4=60-79% damage)
CC#Cc1ccc(-c2cnn(C)c(=O)c2O)c(S(C)(=O)=O)c1 | 1 (1=0-19% damage)
Cn1ncc(-c2ccc(C(F)(F)F)nc2O)c(O)c1=O | 1 (1=0-19% damage)
CN(Cc1nc(C(F)(F)F)ccc1-c1cnn(C)c(=O)c1O)S(C)(=O)=O | 4 (4=60-79% damage)
C=C(C)Cn1cccc(-c2cnn(C)c(=O)c2O)c1=O | 1 (1=0-19% damage)
CC(C)n1ncc(-c2c(Cl)ccc(Cl)c2Cl)c(O)c1=O | 1 (1=0-19% damage)

Every entry's value here was drawn from patent US9693556B2.
